All values here come from patent US20260193326A1.

Molecular target: T1, AAV9 (adeno-associated virus serotype 9)
T1 construct: also called adeno-associated virus serotype 9
Test: SPR, AAV on CM5 chip;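 further: surface plasmon resonance with AAV amine-coupled to the chip as ligand, nanobodies injected as analyte over a concentration series, rate constants and affinity fitted from binding curves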
pKd: −log10 of the molar value.
Classification field: enter satisfied for pKd values not below 7, not satisfied for values below it.

Challenge: Please indicate if the recorded pKd for A4-108 (VHH) VHH: VQLQESGGGLAQPGGSLRLSCLASGSGFSINTMGWYRQAPPKWRELVATVTRGGSTNYAGSVKGRFTISRDNPKNTVYLQMNSLRPEDTAVYYCHLDEVRQSTWTTSNIWGQGTQVTVSS meets or exceeds 7.
Response given: satisfied

Challenge: Another: A4-102 (VHH) VHH: VQLQESGGGLVQPGGSLRLSCAASGSHFTINSVGWYRQAPGKQRELVAPVTRGGTTNYADFVKGRFTISRDNAKNTVYLQMNSLRPEDTAVYYCHVDELRDSSWTTSNLWGQGTQVTVSS
Response given: satisfied

Challenge: Another: A4-109 (VHH) VHH: VQLQESGGGLVQAGGSLRLSCAASGTIFSLNVMGWYRQAPGKQRELVASVTRGGNTNYADSVKGRFTISRDNAKTTVYLQMNSLRPEDTAVYYCHVDELRDSTWTTSNLWGQGTQVTVSS
Response given: satisfied

Challenge: Another: A4-104 (VHH) VHH: VQLQESGGGLVQPGGSLRLSCAASGSIFSLNSMGWYRQAPGKQRELVATITSGGSTNYAGSVKGRFTISRDNAKNTVYLQMNNLQPEDTAVYYCHVDEVRESSWTTSNLWGQGTQVTVSS
Response given: not satisfied

Challenge: Another: A4-114 (VHH) VHH: VQLQESGGGLVQTGGSLRLSCVASGSIFSINTVGWYRQAPGKQRELVATVTRAGSTWYAGSVKGRFTISRDNTKNTIYLQMNSLRPEDTAVYYCHVDELRQSTWTTSNLWGQGTQVTVSS
Response given: not satisfied

Challenge: Another: A4-106 (VHH) VHH: VQLQESGGGLVQPGGSLRLSCIASGSIFSLNAMGWYRQAPGKQRELVATITSGGSTNYADSVKGRFTISRDNAKNTAYLQMNNLQPEDTAVYYCHVDEVRESIWTTSNLWGQGTQVTVSS
Response given: satisfied

Challenge: Another: A4-112 (VHH) VHH: VQLQESGGGLVQTGGSLRLSCIASGSIFSINTVGWYRQAPPKQRELVATVTRAGSTWYAGSVKGRFTISRDNAKNTIYLQMNTLRPEDTAVYYCHVDEVRQSTWTTSNIWGQGTQVTVSS
Response given: satisfied

Challenge: Another: A4-113 (VHH) VHH: VQLQESGGGLVQTGGSLRLSCVASGSRFSINTVGWYRQAPGKQRELVATVTRGGSTWYAGSVKGRFTISRDNTKNTIYLQMNSLRPEDTAVYYCHVDEIRQSTWTTSNLWGQGTQVTVSS
Response given: satisfied

Challenge: Another: A4-110 (VHH) VHH: VQLQESGGGLVQPGGSLRLSCFASGTNFSINVVGWYRQAPGKQRELVATITRGGSTNYAESVKGRFTISRDNAKNTVYLQMNNLRPEDTAVYYCHLDEVRDSSWTTSNLWGQGTQVTVSS
Response given: not satisfied
